experiment: Apparent Permeability across apical to basolateral side in human Caco2 cells at 1 to 10 uM measured at 30 to 90 mins by LC/MS analysis; assay type: ADME, cell-based; details: Caco-2
recorded.metric: Papp A→B at up to 10 µM (×10⁻⁶ cm/s)

P: CCOC(=O)c1cc(C#N)c(N2CCN(C(=O)NS(=O)(=O)c3ccc(Cl)s3)CC2)nc1C
Q: CCOC(=O)c1cnc(N2CCN(C(=O)NS(=O)(=O)c3ccc(Cl)cc3)CC2)c(Cl)c1
R: CCOC(=O)c1cc(C#N)c(N2CCC(NC(=O)NS(=O)(=O)c3ccc(Cl)s3)CC2)nc1C
(Q) Hey, can you sort those compounds up there by Papp A→B at up to 10 µM, smallest first? Sort the labels as requested; that list is your answer.
(A) P, Q, R
(P: 0.058 ×10⁻⁶ cm/s, Q: 1.2 ×10⁻⁶ cm/s, R: 6.9 ×10⁻⁶ cm/s)

====

test: 1-octanol-phosphate buffer distribution coefficient, log D of the compound at pH 7.4 after 2 days by shake flask method; type: physicochemical
recorded.metric: logD at 48 h

(Q) Could you share which logD at 48 h value was measured for `CCCOC(=O)c1cnc(N2CCN(C(=O)NS(=O)(=O)c3ccc(Cl)s3)CC2)c(Cl)c1` ?
(A) 1.6

A: CCOC(=O)c1cnc(N2CCN(C(=O)NS(=O)(=O)c3ccc(Cl)s3)CC2)c(Cl)c1
B: CCOC(=O)c1cc(C#N)c(N2CCN(C(=O)NS(=O)(=O)c3ccc(Cl)s3)CC2C)nc1C (racemic)
(Q) Pick one, A or B : lowest reported logD at 48 h. Output the label that corresponds to your choice.
(A) A

====

experiment: 1-octanol-phosphate buffer distribution coefficient, log D of the compound at pH 7.4 after 2 days by shake flask method; format: physicochemical
recorded.metric: logD at 48 h

(Q) Give its logD at 48 h value. Item: `CCOC(=O)c1cc(C#N)c(N2CCN(C(=O)NS(=O)(=O)c3ccc(Cl)s3)CC2)nc1C`
(A) 1

(Q) For the molecule `CCOC(=O)c1cnc(N2CCN(C(=O)NS(=O)(=O)c3ccc(F)cc3)CC2)c(Cl)c1` , what logD at 48 h is on record?
(A) 0.6

(Q) # get_value(readout='logD at 48 h', item= `CCOC(=O)c1cc(C#N)c(N2CCC(NC(=O)NS(=O)(=O)c3ccc(Cl)s3)CC2)nc1C` )
(A) 1.6

1: CCOC(=O)c1cc(C#N)c(N2CCN(C(=O)NS(=O)(=O)c3ccc(C)cc3)CC2)nc1C(F)(F)F
2: CCOC(=O)c1cc(C#N)c(N2CC(NC(=O)NS(=O)(=O)c3ccc(Cl)s3)C2)nc1C
3: CCOC(=O)c1cc(C#N)c(N2CCC(NC(=O)NS(=O)(=O)c3ccc(Cl)cc3)CC2)nc1C
4: CCOC(=O)c1cnc(N2CCN(C(=O)Nc3ccccc3)CC2)c(C#N)c1
5: CCOC(=O)c1cc(C#N)c(N2CC(NC(=O)NS(=O)(=O)c3ccccc3)C2)nc1C
(Q) // smallest logD at 48 h at index 0, largest at the end Reply with the labels, ordered as the question asks.
(A) 5, 2, 1, 3, 4
